target under test: T1, human TREM2 on cells (human, UniProt Q9NZC2 19-230)
T1 sequence: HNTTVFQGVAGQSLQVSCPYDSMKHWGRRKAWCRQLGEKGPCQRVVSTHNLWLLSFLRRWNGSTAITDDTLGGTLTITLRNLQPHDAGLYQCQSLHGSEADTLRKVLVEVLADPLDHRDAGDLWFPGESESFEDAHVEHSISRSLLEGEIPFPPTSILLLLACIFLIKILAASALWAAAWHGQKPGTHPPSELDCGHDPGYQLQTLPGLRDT
assay info: cell-based or functional assay
property measured: IC50, TREM2 shedding inhibition in Jurkat-NFAT reporter cells (sTREM2 ELISA)

hPara.09.v2 Q100P/V104L (antibody, human IgG1, V domains shown) VH: EVQLVESGGGLVQPGGSLKLSCATSGFPFSNVWLHWVRQASGKGPEWVAHIKAKSDNYATYYAESVKGRFTISRDDSKNTVYLQMNSLKTEDTAVYYCTDILEYWGQGTLVTVSS VL: DVVMTQSPLSLPVTPGEPASISCRSSRSLLTSKGITSLYWYLQKPGQSPQLLIYRMSNLASGIPDRFSGSGSGTDFTLKISRVEAEDVGVYYCAQFLVYPYTFGPGTKLEIK	0.114 µg/mL
hPara.09.v2 hIgG1 N297G (antibody, V domains shown, also called hPara.09.H5.hIgG1.N297G) VH: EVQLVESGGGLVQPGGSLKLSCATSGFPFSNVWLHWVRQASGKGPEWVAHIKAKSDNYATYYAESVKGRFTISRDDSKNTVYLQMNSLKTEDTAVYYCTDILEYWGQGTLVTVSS VL: DVVMTQSPLSLPVTPGEPASISCRSSRSLLTSKGITSLYWYLQKPGQSPQLLIYRMSNLASGIPDRFSGSGSGTDFTLKISRVEAEDVGVYYCAQFLVYPYTFGQGTKVEIKR	0.162 µg/mL
hPara.09.v2 Q100P (antibody, V domains shown, Human IgG1 N297G in the cell assays; also called huPara.09.v2 Q100P; hPara.09 Q100P) VH: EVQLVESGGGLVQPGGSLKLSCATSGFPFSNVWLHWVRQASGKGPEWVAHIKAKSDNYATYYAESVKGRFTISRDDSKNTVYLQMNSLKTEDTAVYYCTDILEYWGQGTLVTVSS VL: DVVMTQSPLSLPVTPGEPASISCRSSRSLLTSKGITSLYWYLQKPGQSPQLLIYRMSNLASGIPDRFSGSGSGTDFTLKISRVEAEDVGVYYCAQFLVYPYTFGPGTKVEIK	0.123 µg/mL

Then this binder:
Q. For the binder shown here, h3.10C2.v1 hIgG1 N297G (antibody, V domains shown, Human IgG1 N297G; also called h3.10C2.v1.huIgG1.N297G) VH: EVQLVESGGGLVQPGGSLKLSCATSGFPFSNVWMHWVRQASGKGLEWIAHIKAKSDNYATYYAESVKGRFTISRDDSKTTIYLQMNSLKTEDTAVYYCTGLDYWGQGTTVTVSS VL: DVVMTQSPLSLPVTPGEPASISCRSSRSLLTSKGITSLYWYLQKPGQSPQLLIYRMSNLASGVPDRFSGSGSGTDFTLKISRVEAEDVGVYYCAQFLVYPYTFGQGTKVEIK , give the reported IC50, TREM2 shedding inhibition in Jurkat-NFAT reporter cells (sTREM2 ELISA).
A. 0.975 µg/mL

Values compiled from patent US20220389097A1.
